system: MS2 coat protein; assay: apparent KD of MS2 coat protein; designed switch direction (-1 OFF switch, 1 ON switch): -1; higher = weaker reporter binding; settings: input ligand: none
parameterMeasured: apparent KD of MS2 coat protein (nM)
// return numeric value only (unit: nM, not printed)

Name the reported apparent KD of MS2 coat protein value associated with the sequence UAUUAACAAGUAAGAUCCCACAUGAGGAUCACCCAUGUGCUCGUCUUAUAAGGUACUGUGACGAAAGUCACGGUACC [Sensor 3, v1 - 87] (Eterna round: R96, puzzle: Sensor v3, turn-off variant 1)
16.9

For the sequence shown here, CGUGGCCAAGGAUAUGGGUAUCAUGACAUGAGGAUCACCCAUGUAUAGAGGAUCCAUAGCCCAGAAGGUGGUCCGG [Eternabot (L1) Solution 85] (Eterna round: R97, puzzle: Exclusion 5) , give the reported apparent KD of MS2 coat protein.
17

Entry under review: CCUGAUCCACAGGAUAUGCUCAUCUAAUGAUGAGCAGAAGGGUGGACAUGAGGAUCACCCAUGUUUAUCAAUGG [Omei Ex6 D4] (Eterna round: R97, puzzle: Exclusion 6) . Reported apparent KD of MS2 coat protein?
125

Requested read-out: apparent KD of MS2 coat protein. Entry: GAUCCUUCUGUUAGGAUAUGCUUUGGGCUUCCGCAGCAGAAGGAACAUGAGGAUCACCCAUGUCCAAUGCCAUC [salish99_bmex4_r4_505] (Eterna round: R97, puzzle: Brourd's mod of Exclusion 4)
39.1

Which apparent KD of MS2 coat protein value is on record for AUAAUGUGAGGAUAUCAGUAGUAUUGCCUCGGCAAUACUACUGAGAAGGCACAUGAGGAUCACCCAUGUGAUCA [E4/2-B2] (Eterna round: R97, puzzle: Exclusion 4) ?
772

Look up apparent KD of MS2 coat protein for this sequence: GCGUUCUGAGGAUAUACAUGAGGAUCACCCAUGUUGAGAAUUAGGUAUAAGGGAUUUUGUAGAAGGCAGAGUGC [JR_Ex3_Sub072] (Eterna round: R97, puzzle: Exclusion 3)
59.9

Can you look up the measured apparent KD of MS2 coat protein of UUAAUUCGGAUUCUUGAAAUACAUGAGGAUCACCCAUGUUCACAGGAUAUUGAUUAAGUUAGUAACAAGAAGGGUGUAACAUAA [JR_ExcNG3_Sub035] (Eterna round: R96, puzzle: Exclusion NG 3) for me?
22.9

Item AUCGGACAUGAGGAUCACCCAUGUCAGGAUAUCUGGAACCAUUGGCAGAUGAGGGAAAAGAGAAGGGACAGUGG [EX1 C.3] (Eterna round: R97, puzzle: Exclusion 1) has what recorded apparent KD of MS2 coat protein?
18.5

Query: apparent KD of MS2 coat protein; subject: CGCCUGGGAGGAUAUCCAAUAUAUGACAUGAGGAUCACCCAUGUUUCCACUCGUACCUCCGGAGAAGGCCCGGCGU [Ex5 #31] (Eterna round: R97, puzzle: Exclusion 5)
26.7

Each recorded value in this set is attributed to the supplement of paper PMC9170038.
